Origin of the recorded values: the Kinase Knowledgebase extract (Sharma et al. 2016)

pIC50: −log10 of the molar value.
Assay system EGFR (UniProt P00533); read-out recorded as pIC50.
Readout Label: pIC50

INSERT INTO measurements (test_smiles, reported_result) VALUES
  ('CCc1cc(CC)c(/C=C2\C(=O)Nc3cc(-c4ccccc4)ccc32)[nH]1', '< 4.30'),
  ('COc1ccc(-c2ccc3c(c2)NC(=O)/C3=C\c2ccc(C)s2)cc1', '< 4.30'),
  ('COc1ccc(NC(=O)c2cc(C(C)(C)C)nn2Cc2ccccc2)cc1-c1ccccc1', '< 4.30'),
  ('CC(C)(C)c1cc(C(=O)Nc2ccncc2)n(Cc2ccccc2)n1', 4.55),
  ('CC(C)(C)c1cc(C(=O)Nc2c(F)c(F)nc(F)c2F)n(Cc2ccccc2)n1', 4.59),
  ('CCc1cc(CC)c(/C=C2\C(=O)Nc3cc(-c4ccc(OC)cc4)ccc32)[nH]1', '< 4.30'),
  ('Cc1ccc(/C=C2\C(=O)Nc3cc(-c4ccccc4)ccc32)s1', '< 4.30'),
  ('CC(C)(C)c1cc(C(=O)Nc2cnc3ccccc3c2)n(Cc2ccccc2)n1', 4.99),
  ('CCOc1cccc(-c2ccc3c(c2)NC(=O)/C3=C\c2cnc[nH]2)c1', '< 4.30'),
  ('COc1cccc(-c2ccc3c(c2)NC(=O)/C3=C\c2ccc(N3CCN(C=O)CC3)cc2)c1', '< 4.30');
